So I've got a bunch of compounds here, and I need their growth values.
# Test system: EKVX NSCLC
# assay name: NCI-60 one-dose screen, 48 h (100 = growth as untreated, 0 = no growth, -100 = all killed)
# measurement setup: 10 µM unless noted
The panel holds about 83,000 compounds, 20% with a hit somewhere; the sample as a whole holds those more often.
Enter your answer as a number in %; do not include the unit.

[ask] Give a short answer stating reported growth for `CN1CCc2c(sc3ncnc(N/N=C/c4cccc(Cl)c4Cl)c23)C1` .
[reply] 67.4

[ask] Give a short answer stating reported growth for `O=c1[nH]c2ccccc2cc1COc1ccc(Nc2nccc(-c3ccc(Cl)cc3)n2)cc1` .
[reply] 104

[ask] Give a short answer stating reported growth for CN1C(=O)C2(C(C#N)=C(c3ccc(Cl)cc3)Nc3c2c(-c2ccccc2)nn3-c2ccccc2)c2ccccc21 (centres undefined) .
[reply] 80.7

[ask] Give a short answer stating reported growth for `CCCN(CCC)S(=O)(=O)c1ccc(C(=O)O)cc1.CCCN(CCC)S(=O)(=O)c1ccc(C(=O)O)cc1.[Cl][Pt+2][Cl].[NH2-].[NH2-]` .
[reply] 44.8

[ask] Give a short answer stating reported growth for `CCOc1ccc(-c2cc(-c3cc(C(C)C)c(O)cc3C)nn2-c2ccc(S(N)(=O)=O)cc2)cc1` .
[reply] 30.9

[ask] Give a short answer stating reported growth for `Cc1cccc(NCC(=O)N2CCN(c3ncnc4c3cnn4-c3ccccc3)CC2)c1` .
[reply] 53.7

[ask] Give a short answer stating reported growth for `O=C(NNC(=S)NCCc1ccccc1)c1ccc(OCc2nc3ccc(Cl)cc3[nH]2)cc1` .
[reply] 66.1

[ask] Give a short answer stating reported growth for `O=C1Nc2cc(-c3ccc(NS(=O)(=O)c4ccc(C(F)(F)F)cc4)cc3)ccc2/C1=C/c1ccc[nH]1` .
[reply] 19.5

[ask] Give a short answer stating reported growth for `Cc1cn(-c2cc(NC(=O)c3ccc(C)c(-n4cc(-c5cnc6cccnn56)nn4)c3)cc(C(F)(F)F)c2)cn1` .
[reply] 98.9

[ask] Give a short answer stating reported growth for `C=CC(=O)N1CCN(c2ccc3nc4c(nc3c2C(F)(F)F)C(=O)c2ncccc2C4=O)CC1` .
[reply] 30.4

[ask] Give a short answer stating reported growth for `COc1ccc(Nc2nnc(-c3c[nH]c4ccccc34)o2)cc1` .
[reply] 68

[ask] Give a short answer stating reported growth for `Cc1[nH]nc2ccc3nc(-c4cnn(CCO)c4)c4c(c3c12)CCCC4` .
[reply] 27.2

[ask] Give a short answer stating reported growth for `CN(C)CCCNC(=S)Nc1ccc(/C=C/c2ccc(Cl)cc2)cc1` .
[reply] -35.1

[ask] Give a short answer stating reported growth for `CC[C@@]12CC(C(=O)OC)=C3Nc4cc5c(cc4[C@@]34CCN(C[C@H]3O[C@H]31)[C@@H]24)[C@@H]1[C@H](O5)[C@@H](O)[C@@]2(CC)CC(C(=O)OC)=C3Nc4cc(O)ccc4[C@@]34CCN1[C@@H]24` .
[reply] -14.9

[ask] Give a short answer stating reported growth for `CCC(=O)c1cc(C(=O)OC)c2ccc3c4ccccc4ccc3n12` .
[reply] 83.6

[ask] Give a short answer stating reported growth for CCC1(OC(=O)c2ccccc2SSCCOC(=O)CCCCC2SCC3NC(=O)NC32)C(=O)OCc2c1cc1n(c2=O)Cc2cc3ccccc3nc2-1 (centres undefined) .
[reply] 52.1

[ask] Give a short answer stating reported growth for `Nc1cc2ccccc2c(=O)n1NC(=O)c1ccccc1` .
[reply] 87.6

[ask] Give a short answer stating reported growth for `N#C/C(=C/c1ccc(Cl)cc1)c1nnc(NC(=O)c2ccc(-n3c(=O)[nH]c4ccccc4c3=O)cc2)s1` .
[reply] 86

[ask] Give a short answer stating reported growth for `COc1ccc(NC2=C(I)C(=O)C(C)=C(C)C2=O)cc1` .
[reply] 25

[ask] Give a short answer stating reported growth for Fc1cccc(CNc2nc(SCCN3CCOCC3)nc3c2cnn3CC(Cl)c2ccc(Br)cc2)c1 (centres undefined) .
[reply] 41.1

[ask] Give a short answer stating reported growth for `Oc1cncc(-c2ccc3ncnc(N4CCc5cc(F)c(Cl)cc54)c3c2)c1` .
[reply] 59.2

[ask] Give a short answer stating reported growth for `CCCCCCCCCc1ccc(C(=O)Nc2cc(C)ccc2C(=O)OC)cc1` .
[reply] 109

[ask] Give a short answer stating reported growth for `O=C(N/N=C/c1ccc(Cl)cc1)c1ccc(OCc2nc3ccc(Cl)cc3[nH]2)cc1` .
[reply] 32.1

[ask] Give a short answer stating reported growth for `c1n[nH]cc1-c1nc2ccc3[nH]ncc3c2c2c1CC1(CC2)COC1` .
[reply] 78.6

[ask] Give a short answer stating reported growth for `COc1cc(CNC(=O)C[C@H](C)CCC=C(C)C)ccc1OCc1cn(-c2ccc(Cl)c(Cl)c2)nn1` .
[reply] 77.2

[ask] Give a short answer stating reported growth for `Cn1cc(-c2cc3nc(-c4c[nH]c5ccccc45)cc(N)n3n2)c2ccccc21` .
[reply] 55.1

[ask] Give a short answer stating reported growth for `O=C(CSc1nc2ccccc2c(=O)[nH]1)Nc1ccccc1C(=O)O` .
[reply] 92.3

[ask] Give a short answer stating reported growth for `CC[C@]12C=CCN3CC[C@]4(C(=C(C(=O)OC)C1)Nc1cc(OC)c([C@@H]5[C@H]6O[C@H]6[C@@]6(CC)CC(C(=O)OC)=C7Nc8cc(OC)ccc8[C@@]78CCN5[C@@H]68)cc14)[C@@H]32` .
[reply] 51.7

[ask] Give a short answer stating reported growth for COc1ccc2c(c1)C(Sc1ccc(F)cc1)c1c(nc(N)c(C#N)c1N)O2 (centres undefined) .
[reply] 87.1
